assay: Photocytotoxicity against human PANC1 cells assessed as cell viability preincubated for 5 hrs with cells followed by UVA-1 irradiation at 3.0 mW/cm'2 for 20 mins measured after 48 hrs by CCK8 assay; format: functional, cell-based; conditions: PANC-1, light or radiation study
RECORDED ENDPOINT: EC50 (µM)
Numeric only. Scale: µM

{"COMPOUND": "CCN(CC)CCNC(=O)c1c(C)[nH]c(/C=C2\\C(=O)Nc3ccc(F)cc32)c1C [SUNITINIB]", "RECORDED ENDPOINT": "EC50", "NUMBER": 13}

Proceed to the following item.
The compound listed as `Cc1cn([C@H]2C[C@H](n3cc(CNC(=O)CCCCCOc4ccc5c(c4)-c4nc6cc(Cl)c(Cl)cc6nc4[C@@H]4C(C)(C)CCC[C@]54C)nn3)[C@@H](CO)O2)c(=O)[nH]c1=O` has a reported EC50 of 1.3

====

Below: a set of entries, each annotated with reported EC50.
experiment: Photocytotoxicity against human PANC1 cells assessed as cell viability preincubated for 5 hrs followed by UVA-1 irradiation at 0.85 mW/cm'2 for 20 mins measured after 48 hrs by CCK8 assay; assay type: functional, cell-based; conditions: PANC-1, light or radiation study
Numeric only. Scale: µM

{"MOL": "Cc1cn([C@H]2C[C@H](n3cc(CNC(=O)CCCCCCCOc4ccc5c(c4)-c4nc6ccccc6nc4[C@@H]4C(C)(C)CCC[C@]54C)nn3)[C@@H](CO)O2)c(=O)[nH]c1=O", "EC50 / µM": 5.7}
{"MOL": "Cc1cn([C@H]2C[C@H](n3cc(CNC(=O)CCCCCOc4ccc5c(c4)-c4nc6cc(Br)c(Br)cc6nc4[C@@H]4C(C)(C)CCC[C@]54C)nn3)[C@@H](CO)O2)c(=O)[nH]c1=O", "EC50 / µM": 5.8}

Proceed to the following item.
The compound listed as `Cc1cn([C@H]2C[C@H](n3cc(CNC(=O)CCCCCOc4ccc5c(c4)-c4nc6ccccc6nc4[C@@H]4C(C)(C)CCC[C@]54C)nn3)[C@@H](CO)O2)c(=O)[nH]c1=O` has a reported EC50 of 9.8

====

experiment: Dark toxicity against human Bel7402 cells assessed as cell viability after 53 hrs by CCK8 assay in absence of UVA-1 irradiation; type: cell-based, Bel-7402
RECORDED ENDPOINT: EC50 at 53 h (µM)
Numeric only. Scale: µM

{"MOL": "Cc1cn([C@H]2C[C@H](n3cc(CNC(=O)CCCCCCCOc4ccc5c(c4)-c4nc6ccccc6nc4[C@H]4C(C)(C)CCC[C@]54C)nn3)[C@@H](CO)O2)c(=O)[nH]c1=O", "OUTPUT UNIT": "µM", "EC50 at 53 h": 10}

The molecule listed as `Cc1cn([C@H]2C[C@H](n3cc(CNC(=O)CCCCCOc4ccc5c(c4)-c4nc6ccc(F)cc6nc4[C@@H]4C(C)(C)CCC[C@]54C)nn3)[C@@H](CO)O2)c(=O)[nH]c1=O` has a reported EC50 at 53 h of 10

====

experiment: Cytotoxicity against human Hep3B cells assessed as cell viability after 72 hrs by MTT assay; assay type: functional, cell-based, Hep 3B2
RECORDED ENDPOINT: pEC50
Give only the number. pEC50 is defined as minus log10 of concentration in molar units.

The molecule listed as `Cc1cn([C@H]2C[C@H](n3cc(CNC(=O)CCCCCOc4ccc5c(c4)-c4nc6ccccc6nc4[C@@H]4C(C)(C)CCC[C@]54C)nn3)[C@@H](CO)O2)c(=O)[nH]c1=O` has a reported pEC50 of 5.22

====

assay: Photocytotoxicity against human PANC1 cells assessed as cell viability preincubated for 5 hrs with cells followed by white light irradiation at 0.015 mW/cm'2 for 20 mins measured after 48 hrs by CCK8 assay; assay type: functional, cell-based; conditions: PANC-1, light or radiation study
RECORDED ENDPOINT: EC50

The compound listed as `Cc1cn([C@H]2C[C@H](n3cc(CNC(=O)CCCCCOc4ccc5c(c4)-c4nc6cc(Cl)c(Cl)cc6nc4[C@@H]4C(C)(C)CCC[C@]54C)nn3)[C@@H](CO)O2)c(=O)[nH]c1=O` has a reported EC50 of > 10 µM

====

assay: Photocytotoxicity against human Bel7402 cells assessed as cell viability preincubated for 5 hrs with cells followed by white light irradiation at 0.015 mW/cm'2 for 20 mins measured after 48 hrs by CCK8 assay; format: functional, cell-based; settings: Bel-7402, light or radiation study
pEC50: −log10 of the molar value.
RECORDED ENDPOINT: pEC50

The compound listed as `Cc1cn([C@H]2C[C@H](n3cc(CNC(=O)CCCCCOc4ccc5c(c4)-c4nc6cc(Cl)c(Cl)cc6nc4[C@@H]4C(C)(C)CCC[C@]54C)nn3)[C@@H](CO)O2)c(=O)[nH]c1=O` has a reported pEC50 of < 5.00

====

Below: a set of entries, each annotated with reported EC50 at 53 h.
experiment: Dark toxicity against human Bel7402 cells assessed as cell viability after 53 hrs by CCK8 assay in absence of UVA-1 irradiation; format: cell-based, Bel-7402

Example entries and their recorded answers appear below.
{"MOL": "Cc1cn([C@H]2C[C@H](n3cc(CNC(=O)CCCCCOc4ccc5c(c4)-c4nc6cc(Br)c(Br)cc6nc4[C@@H]4C(C)(C)CCC[C@]54C)nn3)[C@@H](CO)O2)c(=O)[nH]c1=O", "RECORDED ENDPOINT": "EC50 at 53 h", "RESULT": "> 20 µM"}
{"MOL": "Cc1cn([C@H]2C[C@H](n3cc(CCCC(=O)Nc4cc5ccc6cccc7ccc(c4)c5c67)nn3)[C@@H](CO)O2)c(=O)[nH]c1=O", "RECORDED ENDPOINT": "EC50 at 53 h", "RESULT": "> 50 µM"}

Proceed to the following item.
The molecule listed as `Cc1cn([C@H]2C[C@H](n3cc(CNC(=O)CCCCCOc4ccc5c(c4)-c4nc6ccccc6nc4[C@H]4C(C)(C)CCC[C@]54C)nn3)[C@@H](CO)O2)c(=O)[nH]c1=O` has a reported EC50 at 53 h of > 20 µM
